- system-tested: human collagenase-1 catalytic domain (Homo sapiens)
- Sequence (P03956 100-269 limits assumed): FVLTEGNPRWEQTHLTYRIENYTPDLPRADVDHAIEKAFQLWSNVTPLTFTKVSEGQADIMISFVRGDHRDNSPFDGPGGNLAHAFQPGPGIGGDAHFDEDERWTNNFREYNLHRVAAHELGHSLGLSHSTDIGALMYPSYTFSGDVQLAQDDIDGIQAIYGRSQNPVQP
pIC50: −log10 of the molar value.
Label Yes when pIC50 is at or above 7; anything below gets No.

> print(dat)
                                    compound  answer.label
 1  C[C@@H](NS(=O)(=O)N1CCN(c2ccc(Cl)cc2)CC1)C(=O)O            No
 2  CN(Cc1ccccc1)S(=O)(=O)N(CC(=O)NO)Cc1ccccc1            No
 3  CC(C)[C@@H](NS(=O)(=O)N1CCC(c2nc(-c3ccccc3)c[nH]2)CC1)C(=O)NO            No
 4  CC(C)[C@@H](NS(=O)(=O)N1CCN(c2ccc(Cl)cc2)CC1)C(=O)NO            No
 5  CN(C)C(=O)N1CCN(S(=O)(=O)N2CCC(c3c[nH]c4c(F)c(F)c(F)c(F)c34)CC2)[C@@H](C(=O)NO)C1            No
 6  CC(C)[C@@H](NS(=O)(=O)N1CCC(Oc2ccc(F)cc2)CC1)C(=O)NO           Yes
 7  O=C(NO)C1CCCCN1S(=O)(=O)N1CCC(c2c[nH]c3cc(Cl)ccc23)CC1 (racemic)            No
 8  C[C@@H](NS(=O)(=O)N1CC=C(c2ccc(Cl)cc2)CC1)C(=O)NO            No
 9  O=C(NO)C1CCCCN1S(=O)(=O)N1CCC(c2c[nH]c3ccc(F)cc23)CC1 (racemic)            No
10  O=C(NO)C1CCCCN1S(=O)(=O)N1CCC(c2noc3cc(F)ccc23)CC1 (racemic)           Yes
11  N#Cc1ccc2[nH]cc(C3CCN(S(=O)(=O)N4CCCC[C@@H]4C(=O)NO)CC3)c2c1            No
12  C[C@H](C(=O)O)N(Cc1ccccc1)S(=O)(=O)NCc1ccccc1            No
13  CC(C)[C@@H](NS(=O)(=O)N1CCN(c2ccc(Cl)cn2)CC1)C(=O)NO            No
